Biological target: T1, B-cat-Halo (UniProt P35222 1-781, HaloTag NanoBRET 618 Ligand bound in the assay)
T1 sequence (looked up): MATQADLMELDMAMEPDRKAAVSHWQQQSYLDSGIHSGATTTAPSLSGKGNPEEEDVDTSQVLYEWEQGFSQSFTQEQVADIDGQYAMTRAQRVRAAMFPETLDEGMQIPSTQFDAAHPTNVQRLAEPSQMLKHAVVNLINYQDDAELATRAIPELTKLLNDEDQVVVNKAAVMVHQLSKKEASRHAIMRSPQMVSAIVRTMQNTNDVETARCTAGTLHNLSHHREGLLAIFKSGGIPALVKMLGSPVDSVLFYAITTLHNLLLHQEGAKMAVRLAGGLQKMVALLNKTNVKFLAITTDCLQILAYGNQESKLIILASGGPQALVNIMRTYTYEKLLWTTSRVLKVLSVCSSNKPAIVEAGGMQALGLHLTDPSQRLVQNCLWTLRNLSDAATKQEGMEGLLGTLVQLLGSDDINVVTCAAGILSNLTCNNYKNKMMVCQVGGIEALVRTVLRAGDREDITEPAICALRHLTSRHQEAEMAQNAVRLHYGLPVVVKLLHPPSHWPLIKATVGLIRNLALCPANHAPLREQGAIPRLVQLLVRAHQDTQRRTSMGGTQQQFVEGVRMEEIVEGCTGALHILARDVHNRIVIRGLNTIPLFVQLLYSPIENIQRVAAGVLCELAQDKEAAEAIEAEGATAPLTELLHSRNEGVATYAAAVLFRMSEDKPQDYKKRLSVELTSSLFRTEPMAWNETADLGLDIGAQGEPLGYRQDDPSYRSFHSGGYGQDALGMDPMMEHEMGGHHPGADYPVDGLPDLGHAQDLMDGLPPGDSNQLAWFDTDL
Experiment: cell-based or functional assay
Starred links: 1 amine or outer side, 2 acyl side, 3 side chain; linkers in the order of their positions; H or OH if unused. Positions of bridges follow the written chain, without caps; N, C: chain ends. Non-standard residues stand in square brackets, D forms with d. Primed or numbered codes have the meaning given here. PyrS2″ = (S)-3-amino-1-((pent-4-en-1-yloxy)carbonyl)pyrrolidine-3-carboxylic acid (stapling residue), C=CCCCOC(=O)N1CC[C@@](N[*:1])(C(=O)[*:2])C1; B5(4) = 2,2-bis(4-pentenyl)glycine = 2-amino-2-(pent-4-en-1-yl)hept-6-enoic acid (stitching residue), C=CCCCC(CCCC=C)(N[*:1])C(=O)[*:2]; (NMe2)GlnR(3) = [NMe2]GlnR, N5,N5-dimethyl-L-glutamine, CN(C)C(=O)CC[C@H](N[*:1])C(=O)[*:2]; Phe(3-COOH) = N[C@@H](Cc1cccc(C(=O)O)c1)C(=O)O; 2F3MeF = Cc1cccc(C[C@H](N[*:1])C(=O)[*:2])c1F; Bta = N[C@@H](Cc1csc2ccccc12)C(=O)O; αAllylPro = C=CC[C@@]1(C(=O)O)CCCN1; tBuAla = CC(C)(C)C[C@H](N)C(=O)O; 3Thi = N[C@@H](Cc1ccsc1)C(=O)O; Nle = CCCC[C@H](N)C(=O)O; Aib = CC(C)(N)C(=O)O
MEASURED QUANTITY: NanoBRET Abs IC50 (µM)
Form entry: value (µM) — number only.

For the binder Ac-[αAllylPro]D[tBuAla][B5(4)]D[Phe(3-COOH)]AAF[MorphGln][PyrS2″][2F3MeF][Bta][Me2Gln]-NH2 (staple 1-4, 4-11; not fully specified; printed as Ac-PL3-Asp-Npg-B5-Asp-3COOHF-Ala-Ala-Phe-MorphGln-PyrS2-2F3MeF-BztA-Me2Gln-NH2) [I-2537] , what NanoBRET Abs IC50 is on record?
2.9

Then Ac-[αAllylPro]D[tBuAla][B5(4)]D[Phe(3-COOH)][Aib]AF[Nle][PyrS2″][3Thi][Bta][(NMe2)GlnR(3)]-NH2 (staple 1-4, 4-11) [I-2551] ?
9.8
